System: SF-268 CNS
MEASUREMENT NOTES: NCI tumour cell line growth inhibition, 48 h
Please go through the items and note down their TGI.

# COMPOUND, TGI
records = [
    ("CC1CN=C(N(C(=O)Nc2ccc(Cl)c(Cl)c2)c2ccccc2)S1 (stereo not given)", "> 100 µM"),
    ("C/C(=N\\NC(=S)N1CCCCCC1)c1ccccn1", "4.19 µM"),
]

I have 5 compounds here; please give me TGI for each one.
1. CCOC(=O)/C(=C/c1ccc(N(C)C)cc1)N(CC)CC
2. CC(=O)N(C)CCc1c[nH]c2ccccc12
3. CC(C)(C)[Si](C)(C)OC1C(=O)C[C@H]2CCCC[C@@H]12 (stereo not given in full)
4. CS/C(=C(\S)c1ccccc1)c1ccccc1
5. CSc1nc(NC2OC(COC(C)=O)C(OC(C)=O)C(OC(C)=O)C2OC(C)=O)c(N=CC=Nc2c(NC3OC(COC(C)=O)C(OC(C)=O)C(OC(C)=O)C3OC(C)=O)nc(SC)n(C)c2=O)c(=O)n1C (stereo not given)

(A)
1: > 100 µM; 2: > 100 µM; 3: > 100 µM; 4: > 100 µM; 5: > 100 µM

---

System: DMS 114 small cell lung
MEASUREMENT NOTES: NCI tumour cell line growth inhibition, 48 h
Field: TGI. Provide a value for each of the compounds that follow.

# COMPOUND, TGI
rows = [
    ("CN(CCN(C)C(=O)CCn1cc(F)c(=O)[nH]c1=O)C(=O)CCn1cc(F)c(=O)[nH]c1=O", "> 100 µM"),
    ("Nc1ccn(C2OC(C(O)CO)C(O)C2O)c(=O)n1 (centres undefined)", "> 100 µM"),
    ("CC(=O)N1CCC(=O)/C(=C/c2ccccc2)C1", "30.8 µM"),
    ("CSc1nc(NC2OC(COC(C)=O)C(OC(C)=O)C(OC(C)=O)C2OC(C)=O)c(N=CC=Nc2c(NC3OC(COC(C)=O)C(OC(C)=O)C(OC(C)=O)C3OC(C)=O)nc(SC)n(C)c2=O)c(=O)n1C (centres undefined)", "> 100 µM"),
    ("Cn1cnnc1Sc1c([N+](=O)[O-])ncn1C", "> 100 µM"),
]

Parameters: items (list). Returns: TGI for each item.
1. COC1CCCCN1C(=O)c1ccccc1 (centres undefined)
2. COc1cccc(C2CC23C(=O)NC(=O)NC3=O)c1 (centres undefined)
3. C[Si](C)(C)/C(Br)=C\CCN1C(=O)CCC1=O
4. O=[N+]([O-])c1ccc(-c2cnc3ccccn23)cc1

(A)
["> 25.3 µM", "> 100 µM", "> 100 µM", "> 100 µM"]

---

Test system: CCRF-CEM leukemia
MEASUREMENT NOTES: NCI tumour cell line growth inhibition, 48 h
Please go through the items and note down their TGI.

Items follow; give TGI for each.
1. COc1ccccc1Nc1ncc(-c2ccccc2)o1
2. C[C@H]1C(=O)O[C@@H]2CCN3CC=C(COC(=O)[C@](C)(O)[C@@]1(C)O)[C@H]23
3. C=C(C)C1CCC2(C)CC1c1c(c(C)cc3c1[nH]c1ccccc13)O2 (stereo not given)
4. COC1=C(Br)[C@H](O)[C@@]2(C=C1Br)CC(C(=O)NCCCOc1c(Br)cc(C(O)CNC(C)=O)cc1Br)=NO2 (stereo not given in full)

(A)
1: > 25 µM; 2: > 100 µM; 3: > 25 µM; 4: > 10 µM

Hi, could you look up TGI for each item in my list?
1. O=C1C=C(NCCOCCO)C(=O)c2c(O)ccc(O)c21
2. C=CCN1CCC(O)(c2cc(C(=O)OCC)[nH]c2-c2cc(C)no2)C1 (stereo not given)
3. CC1=C(/C=C/C(C)=C/C=C/C(C)=C/C(=O)OC2CC(n3cc(F)c(=O)[nH]c3=O)OC2CO)C(C)(C)CCC1 (stereo not given)
4. COC12C(COC(N)=O)C3=C(C(=O)C(C)=C(N)C3=O)N1CC1C2N1C (stereo not given)
5. CCc1c(Cl)c(C)cc(O)c1Cl
6. CS(=O)(=O)Nc1cc(-c2ccc3ncnc(Nc4c(Cl)ccc5c4OCO5)c3c2)cnc1Cl

(A)
["76.2 µM", "> 100 µM", "31.8 µM", "51.7 µM", "91.7 µM", "6.84 µM"]

For every item in the list below, what is its measured TGI?
1. CC(=O)OCC1OC(n2c(C)cc(C)c(C#N)c2=S)C(OC(C)=O)C(OC(C)=O)C1OC(C)=O (stereo not given)
2. Nc1ccn([C@H]2CO[C@@H](CO)[C@@H]2O)c(=O)n1
3. CC(C)=CCc1cc(O)cc2c1OC(C=C(C)C)C1=C2C(=O)C2=C(C1=O)S(=O)(=O)CCN2 (stereo not given)
4. O=C(Nc1cc(C(F)(F)F)ccc1Cl)c1cccc(NC2=C(Cl)C(=O)N(Cc3ccccc3)C2=O)c1
5. CCOC(=O)c1c(-c2ccc(OC)cc2)c(C#N)c2c(C#N)c(N)nn2c1N
6. CC(C)[Si]1(C(C)C)OCC2OC3(CO)C(Oc4nc(=O)ccn43)C2O[Si](C(C)C)(C(C)C)O1 (stereo not given)
7. O=c1c2ncn(C3CCCO3)c2n(-c2ccccc2)c(=S)n1-c1ccccc1 (stereo not given)
8. C=CCN1CCC23c4c5ccc(O)c4OC2C(=NN=C2CCC4(O)C6Cc7ccc(O)c8c7C4(CCN6CC=C)C2O8)CCC3(O)C1C5 (stereo not given)

(A)
1: > 100 µM; 2: > 100 µM; 3: > 16.7 µM; 4: > 100 µM; 5: > 100 µM; 6: 24.6 µM; 7: > 100 µM; 8: > 100 µM

# batch size: 2; output TGI per entry
1. CC1=C(CO)C2=C(C)C3(CC3)[C@@](C)(O)C(=O)C2=C1
2. CCOC(=O)NNC(=O)NCCCCNC(=O)NNC(=O)OCC

(A)
> 28.6 µM
> 100 µM
